Biological target: T1, BRD4 ET domain (residues M610-R676) (human, UniProt O60885 610-676, uniformly 15N-labelled for the NMR titrations)
T1 construct: human BRD4, extraterminal (ET) domain, residues 610-676; also called extraterminal (ET) domain of BRD4; source: E. coli BL21-CodonPlus (pRIL), purified (HiTrap IMAC, Superdex)
Test: ITC; MicroCal auto-ITC200, 20 °C, PBS pH 7.4 with 0.5 mM dithiothreitol; protein (0.5 mM) in the cell, peptide (7.5 mM) in the syringe; one set of sites model
Settings: both partners purified
experimental_readout: Kd (µM)
Quick reminder: number only, in µM, skip the unit.

The binder listed as KATLERLKRKYRN (peptide, UniProt Q6NYC1 84-96, looked up, JMJD6 residues 84-96 with W85A; also called W85A peptide) [JMJD6 peptide W85A] shows Kd equal to 675
